# credit: the MegaScale stability set (Tsuboyama et al. 2023)

B1: EEHEE_rd4_0647 (parent)
chain: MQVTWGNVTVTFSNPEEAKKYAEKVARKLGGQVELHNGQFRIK

Variants of: B1
Assay: folding stability dG (cDNA display proteolysis); higher = more stable
Conditions: PBS, room temperature
measuredEndpoint: folding stability dG (kcal/mol)
Please state the figure in kcal/mol; there is no need to write the unit.

Some entries whose results are on file:
primarySequence | folding stability dG, kcal/mol
MQVTWYNVTVTFSNPEEAKKYAEKVARKLGGQVELHNGQFRIK | 2.51
MQVTWGNVTVTFSNPEENKKYAEKVARKLGGQVELHNGQFRIK | 0.024
MQVTWGNVTVTFSNPEEAVKYAEKVARKLGGQVELHNGQFRIK | 2.08
MQVTWGNVVVTFSNPEEAKKYAEKVARKLGGQVELHNGQFRIK | 2.84
MQVTWGNVTVTFSNPEEAKKYAEKVARKLGTQVELHNGQFRIK | 2.03

Q) Please report the recorded folding stability dG for MQVTWGNRTVTFSNPEEAKKYAEKVARKLGGQVELHNGQFRIK .
A) 2.5

Q) Let us now turn to MQVTWGNVTVTFSNPEEAKKYAEKVARKLGGEVELHNGQFRIK
A) 2.76

Q) Let us now turn to MQVTWGNVTVTFSNPEEAKKYAEKVARKLGGQVDLHNGQFRIK
A) 2.11

Q) Let us now turn to MQVTWGNVTVTFSWPEEAKKYAEKVARKLGGQVELHNGQFRIK
A) 1.76

Q) Let us now turn to MQVTWGNVTVTFSNPEEAKKYARKVARKLGGQVELHNGQFRIK
A) 2.23

Q) Let us now turn to MQVTWGNVCVTFSNPEEAKKYAEKVARKLGGQVELHNGQFRIK
A) 3.2

Q) Let us now turn to MQVTWGNVTVTFSNPEEAKKYAEKVARKLGGQVELHNGQFRIA
A) 2.57

Q) Let us now turn to MQVTWGNVTVTFSNPEEAKKYAEKVARKLGGQVELHNLQFRIK
A) 1.46

Q) Let us now turn to MQVTWGNVTVTFSNPEEAKKEAEKVARKLGGQVELHNGQFRIK
A) 0.876
